Where do the numbers come from? From PubChem BioAssay AID1347426.

testProtocol: Novel Modifiers of Survival Motor Neuron (SMN) Protein: Gene Identification via Genome-wide siRNA Screen;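 note: luminescence tracks full-length SMN protein made from the SMN2 reporter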
conditionParameters: HEK293T SMN2-luciferase reporter, siRNA knockdown, 72 h; actives lie on both sides
Screen size: about 31,000 sequences; about 1,400 (4.5%) were called active. This excerpt belongs to a sample that is enriched for actives.
// reported median seed-adjusted z-score for each item listed

# seqText, median seed-adjusted z-score
data = [
    ("CAGCCAUGAUAAUAAAGCUTT against RARRES2", -0.125),
    ("GAACUUCACUUAGGACAUUTT against ATP6V1G1", 0.311),
    ("GCAACUCCAAUGUCAGUGATT against TAF9B", -0.0247),
    ("GAACUAUGCUAUACCAGAATT against IQCH", 0),
    ("GCUUACAUAGCAAAUCUAATT against ST8SIA2", 0.516),
    ("GAUCAAAUAUGACUUCCUATT against GPR103", 0),
    ("UGAAGUUGCUGGACGCGUATT against DAD1", -0.45),
    ("GGACUUUGAUUGCUAGCAATT against CTRC", -0.104),
    ("CUCCAUUCCUGGUAUAGAATT against XRCC5", -1.11),
    ("GCAGCUGUAUAAGUUACUATT against NFKB1", 0.31),
    ("GCUCCACAGCAUAUGCUCATT against NFIL3", 0.4),
    ("GAAAUACAAGGAAUCUGAATT against TMTC4", -1.16),
    ("GCAUCAGGGUCAUGGUUCATT against SCNN1D", -1.8),
]

* * *

# maps each entry to its median seed-adjusted z-score
testProtocol: Novel Modifiers of Survival Motor Neuron (SMN) Protein: Gene Identification via Genome-wide siRNA Screen;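 note: luminescence tracks full-length SMN protein made from the SMN2 reporter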
conditionParameters: HEK293T SMN2-luciferase reporter, siRNA knockdown, 72 h; actives lie on both sides
The campaign covered roughly 31,000 sequences. About 1,400 (4.5%) were called active. Shown is part of a subset that was picked to be rich in actives.

# seqText, median seed-adjusted z-score
rows = [
    ("CACUGAAGCUGUACAACAATT against TSHR", 0.851),
    ("GAGUGGGAAUGGUCAGGCUTT against ADORA2B", -0.471),
    ("GGAAUGCUAAGUUCCGAGATT against ARFGAP1", 0.123),
    ("GCAGUAUCGAGCUUCCGAATT against ACAD10", -0.269),
    ("GAGGGACCAUAGUAGAUCATT against CPSF6", -2.38),
    ("GCAUCAGCAUAAGUCCAUUTT against SIAH1", 1.5),
    ("GAAGAUUGCUCAGCGAUUATT against PRPF3", -0.289),
    ("CAGCCCAAGUGUCGCCUUATT against PAX9", -1.16),
    ("CUUUCAUCUCUAAAACUGATT against LHX3", 0.622),
    ("CGAUAGCACCUUCCUGUUUTT against GALT", 0.484),
    ("CGAGAGUUACUUACAAGAATT against RAN", -3.09),
    ("GCGCAUCUAUCAACCCAAUTT against MLNR", -0.038),
    ("GGAAGGAUCAAACUACAAATT against AATF", 0.182),
    ("GGAACAAAGACUAAAAACATT against TUBB6", 0.63),
    ("AGAUCCUGUGGAUUAGAAATT against NEU4", -0.152),
    ("GGUCUACGUGAACAACUCUTT against KCNMB4", 0),
]

* * *

testProtocol: Novel Modifiers of Survival Motor Neuron (SMN) Protein: Gene Identification via Genome-wide siRNA Screen;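 note: luminescence tracks full-length SMN protein made from the SMN2 reporter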
conditionParameters: HEK293T SMN2-luciferase reporter, siRNA knockdown, 72 h; actives lie on both sides
The whole screen tested about 31,000 sequences, of which about 1,400 (4.5%) were called active.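 The calls were made as follows: active = median seed-adjusted z-score above 1 or below -1; inactive = the rest.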 The sample as a whole holds a higher share of actives than the screen did.
Outcomes: Yes for active, No for inactive

# seqText, classification
measured = [
    ("CACCUUAACUUCAUCAACATT against SCN4A", "No"),
    ("GGAUCUCAGUCAAAGGCAUTT against CPZ", "No"),
    ("GGCAGAUAACUGAACGAGATT against HECW2", "No"),
    ("CCGUCACCAUCCUCAUCUATT against PORCN", "No"),
    ("GAAUAACUGCUGCUUGUAATT against TTRAP", "No"),
    ("GGAUGGGCAUGUUGAGAGATT against NUDT9", "No"),
    ("CCUCCUCUGCUUAUCGUAUTT against GLT8D1", "Yes"),
]

* * *

Below is a list of entries, each paired with its recorded median seed-adjusted z-score value.
testProtocol: Novel Modifiers of Survival Motor Neuron (SMN) Protein: Gene Identification via Genome-wide siRNA Screen;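 note: luminescence tracks full-length SMN protein made from the SMN2 reporter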
conditionParameters: HEK293T SMN2-luciferase reporter, siRNA knockdown, 72 h; actives lie on both sides
Out of some 31,000 sequences screened, about 1,400 (4.5%) were called active. The sample as a whole holds a higher share of actives than the screen did.

# seqText, median seed-adjusted z-score
rows = [
    ("AUAUCAACUUGACCCACCATT against B3GNT7", -1.05),
    ("CCAUCAACAUCGCAGAUGATT against ABHD11", -0.189),
    ("GAUGCCCAGUGUCCUGUUATT against PIF1", -0.0455),
    ("CGAUUAUUGUGAGCCUAAUTT against JAG1", -0.32),
    ("UGAUGCCUGUGAUACACUATT against NEU1", -0.425),
    ("AGACGGUCCUCUUUCGACATT against LOC442229", 0.183),
    ("CGAUCGUCUUCUGAUCAAATT against DPYSL2", -0.569),
    ("GUUGCAAACUUAUCGAGGATT against CCT2", -0.0508),
    ("CACCCGCGCUCAUGAGAAATT against KLC2", 0.0706),
    ("CAAACGAGGUGAACGAUGATT against PYGO1", -1.23),
    ("GGGCUUUAAAUAUGAGAUUTT against GRID1", 0.66),
    ("GGAGGAUCAAUUUAUCAGATT against VDAC2", 0.648),
    ("GCAUCAAUGUACCUCCACATT against ETV4", -0.186),
    ("CAGUGGAAAUAAUUACGUUTT against MDH1B", -1.13),
    ("CGACUUGUUGUAUAAGUAUTT against DYNC1LI2", -0.491),
    ("CCACCGAUUUGAUCCCAAATT against NAPSA", -0.336),
    ("UAAUCAAGCUGAAAACAGATT against TRYX3", 2.3),
    ("GCAGUUAUUGGUACUAAUATT against MOAP1", 0.0405),
    ("CAGUACAGGUUGAGUCAAATT against LRRFIP1", -0.181),
    ("CCACACCAUUAUGACCAUUTT against FUT1", 0.000845),
    ("CGUUUAACGUGGUGCUGUUTT against GPR32", -1.2),
    ("AAACAAUGGUUUGUGCAAATT against UCRC", -0.93),
    ("GGUGGAAGUGGUCAACGUATT against DUSP21", -0.0724),
    ("GAGAAGAUGUGGACAUACATT against GRIA1", 0.927),
    ("CCUGCAGAAUAACCUGAUATT against OPTC", 0.0953),
    ("GGUACGAAUGAAUACCUUUTT against PTPN4", -0.447),
    ("GAUGAUUACCUGCAGAGCATT against MYD88", -0.365),
    ("GAGCAGAACCGCAUCAUAUTT against UCN", -0.472),
    ("CUCUGUGAAUUUGAAAUCATT against SNED1", 0.148),
    ("GGAGCAGUAUUGACAACAATT against NUFIP1", -0.673),
    ("GGUUGCGGCUCAGAACAAATT against OAS3", 0.147),
    ("GCGACUUCAUGAUAGCAUATT against CAMK2D", 0.0676),
    ("CAGCAGACGUAAAAAUUCATT against MSX2", -0.406),
    ("AGACGAUCCGGGUAAAGUUTT against LSM7", -0.45),
    ("GUGCCUUGCUAUUCUAAGATT against NEUROD1", 0),
    ("GGAUCAAUACUCCAACAAATT against ZNF281", 1.19),
    ("GGUUCUUCCCGUUGUCUUUTT against TOMM22", 0.486),
    ("CCCUUUUACUAUUCAGCGATT against PPP4R2", 0.211),
    ("GCAAAGCUAUUGCAUUGAATT against HSDL2", -0.0717),
    ("GAAUCAUAAUCGCUCCUUUTT against SPRR1A", -0.0536),
    ("GAUGACUUUUGAUAGUGAATT against ODC1", -1.64),
    ("CAAAUCCUGUCUAACAAAATT against MYH7", 0.659),
    ("GAAUUGACAAUCUCAUAGATT against MCCC2", -0.0566),
    ("CAGUGUAUCUUCAUAAGAUTT against TAF1L", 0.289),
    ("GCCCUGAUUUGUGCAAUGATT against PPP1R16B", -0.892),
]
